Target: DHP Site of the Calcium Channel (Oryctolagus cuniculus, UniProt P07293)
Construct: Washed rabbit skeletal muscle membranes
Sequence (P07293 whole entry): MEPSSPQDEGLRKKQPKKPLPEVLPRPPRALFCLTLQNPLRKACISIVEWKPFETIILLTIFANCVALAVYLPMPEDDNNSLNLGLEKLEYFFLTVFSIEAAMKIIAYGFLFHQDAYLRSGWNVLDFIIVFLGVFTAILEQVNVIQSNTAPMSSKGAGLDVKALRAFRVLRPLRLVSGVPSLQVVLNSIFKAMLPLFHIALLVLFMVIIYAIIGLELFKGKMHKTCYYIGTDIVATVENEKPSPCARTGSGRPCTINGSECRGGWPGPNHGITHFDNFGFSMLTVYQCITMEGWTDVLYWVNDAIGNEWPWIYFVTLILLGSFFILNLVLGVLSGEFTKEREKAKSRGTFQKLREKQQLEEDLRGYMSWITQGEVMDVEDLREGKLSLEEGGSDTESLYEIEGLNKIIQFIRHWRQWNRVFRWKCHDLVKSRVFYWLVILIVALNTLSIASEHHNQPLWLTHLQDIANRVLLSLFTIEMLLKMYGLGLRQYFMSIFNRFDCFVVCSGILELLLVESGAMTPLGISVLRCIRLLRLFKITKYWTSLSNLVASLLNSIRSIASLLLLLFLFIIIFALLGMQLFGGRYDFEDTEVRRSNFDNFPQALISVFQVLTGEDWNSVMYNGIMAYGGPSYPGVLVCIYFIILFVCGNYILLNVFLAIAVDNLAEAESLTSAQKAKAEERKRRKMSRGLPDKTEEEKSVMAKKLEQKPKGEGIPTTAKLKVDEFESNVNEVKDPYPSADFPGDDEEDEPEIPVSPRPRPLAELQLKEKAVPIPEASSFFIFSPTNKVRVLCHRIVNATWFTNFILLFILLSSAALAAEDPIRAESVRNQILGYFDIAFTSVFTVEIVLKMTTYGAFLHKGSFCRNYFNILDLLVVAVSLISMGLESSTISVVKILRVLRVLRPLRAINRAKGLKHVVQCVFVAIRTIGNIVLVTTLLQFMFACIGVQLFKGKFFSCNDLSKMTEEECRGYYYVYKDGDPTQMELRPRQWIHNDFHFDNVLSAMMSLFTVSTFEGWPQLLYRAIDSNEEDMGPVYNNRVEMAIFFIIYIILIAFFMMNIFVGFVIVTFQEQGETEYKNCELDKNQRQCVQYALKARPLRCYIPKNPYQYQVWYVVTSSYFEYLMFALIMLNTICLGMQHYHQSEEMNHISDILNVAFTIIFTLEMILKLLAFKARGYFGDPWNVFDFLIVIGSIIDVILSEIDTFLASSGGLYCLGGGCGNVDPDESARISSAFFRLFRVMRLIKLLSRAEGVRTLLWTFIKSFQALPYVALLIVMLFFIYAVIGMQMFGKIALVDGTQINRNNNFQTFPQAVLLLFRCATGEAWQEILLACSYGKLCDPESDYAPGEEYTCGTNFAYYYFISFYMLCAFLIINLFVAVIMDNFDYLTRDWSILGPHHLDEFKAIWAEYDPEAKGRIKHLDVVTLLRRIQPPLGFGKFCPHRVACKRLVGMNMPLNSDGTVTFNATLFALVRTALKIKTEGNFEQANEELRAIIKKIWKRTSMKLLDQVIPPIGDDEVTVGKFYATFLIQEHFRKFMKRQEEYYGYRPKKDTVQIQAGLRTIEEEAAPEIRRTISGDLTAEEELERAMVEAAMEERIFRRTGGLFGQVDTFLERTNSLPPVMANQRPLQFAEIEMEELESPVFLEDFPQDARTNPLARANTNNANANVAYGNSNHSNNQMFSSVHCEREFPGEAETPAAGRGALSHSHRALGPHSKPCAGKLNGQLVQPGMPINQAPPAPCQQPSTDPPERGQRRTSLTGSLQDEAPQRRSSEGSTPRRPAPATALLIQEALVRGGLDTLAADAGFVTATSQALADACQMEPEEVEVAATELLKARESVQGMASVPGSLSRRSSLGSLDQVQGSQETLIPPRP
Assay: Binding Assay for Drugs Acting at the DHP Site of the Calcium Channel (3H-nitrendipine displacement, washed rabbit skeletal muscle membranes)
Conditions: read-out: KI (moles)
Reported Ki maps to class as: group A = under 2 nM, group B = from 2 nM up to 20 nM, group C = 20 nM and over

1. COC(=O)C1=C(C)NC(C)=C(C(=O)OCCN2CCCC2=O)C1c1cccc([N+](=O)[O-])c1 (stereo not drawn) ... group C

Category lookup for the molecule COC(=O)C1=C(C)NC(C)=C(C(=O)OCCN2C(=O)c3ccccc3C2=O)C1c1cccc([N+](=O)[O-])c1 (stereo not drawn)
group A

Tag the class for COC(=O)C1=C(C)NC(C)=C(C(=O)OCCCCCCN2C(=O)c3ccccc3C2=O)C1c1cccc([N+](=O)[O-])c1 (stereo not drawn)
group A

Any idea which band COC(=O)C1=C(C)NC(C)=C(C(=O)OCCN2C(=O)c3ccccc3C2=O)C1c1cccc(C(F)(F)F)c1 (stereo not drawn) is in?
group C
